Source: the supplement of paper PMC11003180

# Tested on: MDCK p60AmotL2-inducible + doxycycline (p60AmotL2 expressing)
# MEASUREMENT DESCRIPTION: drug sensitivity score (DSS) from 5-dose viability curve (DSS (area-based score, 0 = no response)); higher = more sensitive (stronger viability inhibition); extreme values may be limits of the assay
# DETAILS: doxycycline: 10 ng/mL; 72 h
PARAMETER: drug sensitivity score

Reference set (3 entries):
CC1=C(/C=C/C(C)=C/C=C/C(C)=C/C(=O)O)C(C)(C)CCC1 [Tretinoin] :: 0
COc1ccc(CCc2nc3cc(-c4c(C)noc4C)ccc3n2C[C@H](C)N2CCOCC2)cc1Cl [SGC-CBP30] :: 4.3
CCN(CC)Cc1ccc2cc(COC(=O)Nc3ccc(C(=O)NO)cc3)ccc2c1 [Givinostat] :: 7.1

Lab entry: MDCK p60AmotL2-inducible + doxycycline (p60AmotL2 expressing) assay, compound Cc1cnc(NC(=O)Nc2cc(Br)c(C)cc2OC[C@@H]2CNCCO2)cn1 [Rabusertib] , drug sensitivity score = 0

Lab entry: MDCK p60AmotL2-inducible + doxycycline (p60AmotL2 expressing) assay, compound CCOC(=O)C1=CCCC[C@H]1S(=O)(=O)Nc1ccc(F)cc1Cl [Resatorvid] , drug sensitivity score = 0

Lab entry: MDCK p60AmotL2-inducible + doxycycline (p60AmotL2 expressing) assay, compound Cc1ccc(Nc2nccc(N(C)c3ccc4c(C)n(C)nc4c3)n2)cc1S(N)(=O)=O [Pazopanib] , drug sensitivity score = 0

Lab entry: MDCK p60AmotL2-inducible + doxycycline (p60AmotL2 expressing) assay, compound O=C1c2c(O)ccc(O)c2C(=O)c2c(NCCNCCO)ccc(NCCNCCO)c21 [Mitoxantrone] , drug sensitivity score = 15.5

Lab entry: MDCK p60AmotL2-inducible + doxycycline (p60AmotL2 expressing) assay, compound O=C(Nc1cc(Oc2cc(F)c(NC(=O)C3(C(=O)Nc4ccc(F)cc4)CC3)cc2F)ccn1)C1CC1 [Altiratinib] , drug sensitivity score = 8

Lab entry: MDCK p60AmotL2-inducible + doxycycline (p60AmotL2 expressing) assay, compound C[C@@H]1COCCN1c1cc(C2([S@](C)(=N)=O)CC2)nc(-c2cc[nH]c3nccc2-3)n1 [AZD6738] , drug sensitivity score = 6.7

Lab entry: MDCK p60AmotL2-inducible + doxycycline (p60AmotL2 expressing) assay, compound CC(C)(C)Cn1c(N)nc2ccc(-c3[nH]c(C(C)(C)C)nc3-c3ccc(F)cc3)nc21 [Ralimetinib] , drug sensitivity score = 4.4

Lab entry: MDCK p60AmotL2-inducible + doxycycline (p60AmotL2 expressing) assay, compound COCCOc1cnc2ccn([C@H](C)c3nnc4c(F)cc(-c5cnn(C)c5)cn34)c(=O)c2c1 [AMG-337] , drug sensitivity score = 0

Lab entry: MDCK p60AmotL2-inducible + doxycycline (p60AmotL2 expressing) assay, compound CC(C)[C@@H](CS(=O)(=O)C(C)C)N1C(=O)[C@@](C)(CC(=O)O)C[C@H](c2cccc(Cl)c2)[C@H]1c1ccc(Cl)cc1 [AMG-232] , drug sensitivity score = 9.8

Lab entry: MDCK p60AmotL2-inducible + doxycycline (p60AmotL2 expressing) assay, compound CC[C@H](CO)Nc1nc(NCc2ccccc2)c2ncn(C(C)C)c2n1 [Seliciclib] , drug sensitivity score = 2.4

Lab entry: MDCK p60AmotL2-inducible + doxycycline (p60AmotL2 expressing) assay, compound Cn1c(Nc2ccc(C(F)(F)F)cc2)nc2cc(Oc3ccnc(-c4ncc(C(F)(F)F)[nH]4)c3)ccc21 [NVP-RAF265] , drug sensitivity score = 0

Lab entry: MDCK p60AmotL2-inducible + doxycycline (p60AmotL2 expressing) assay, compound CC(C)Oc1ccc(-c2nn([C@@H](C)c3oc4ccc(F)cc4c(=O)c3-c3cccc(F)c3)c3ncnc(N)c23)cc1F [TGR-1202] , drug sensitivity score = 3.9

Lab entry: MDCK p60AmotL2-inducible + doxycycline (p60AmotL2 expressing) assay, compound O=C(c1cc(Cc2n[nH]c(=O)c3ccccc23)ccc1F)N1CCN(C(=O)C2CC2)CC1 [Olaparib] , drug sensitivity score = 0.2
